- Experiment Notes: NCI Yeast Anticancer Drug Screen. Data for the bub3 strain (AID 167)
- Conditions Used: S. cerevisiae bub3 mutant strain, at 50.0 µM, hits give high values
This is part of a sample that, as a whole, favours compounds with a hit. Of some 79,000 tested, about 15% had one in any assay.
Parameter: growth inhibition (%)

>>> readout_value("CCCCCCCCCCC(C(=O)c1ccccc1)N1CCOCC1 (configuration not stated)")
3.85
>>> readout_value("COc1cc(C2c3cc4c(cc3OC(O)C2C)OCO4)cc(OC)c1O (configuration not stated)")
-2.9
>>> readout_value("O=C(C[n+]1ccccc1)C1CCCC2CC3CCCCC3CC21 (configuration not stated)")
22.1
>>> readout_value("C=[CH][Sn]([CH]=C)([c]1ccccc1)[c]1ccccc1")
-26.8
>>> readout_value("O=C(O)C(O)(c1ccccc1)c1ccsc1 (configuration not stated)")
1.95
>>> readout_value("CCOC(=O)P(=O)(OCC)OCC")
4.95
>>> readout_value("N#Cc1ccc(C(Cl)(Cl)Cl)cc1")
-3.15
>>> readout_value("[CH3][Sn]([CH3])([n]1cnc(N)nc1=O)[n]1cnc(N)nc1=O")
-2.55
>>> readout_value("ClCc1ccc(Cl)c(Cl)c1")
1.5
>>> readout_value("O=C(Nc1cc(Cl)c(Cl)cc1Cl)C(=O)C1C(=O)NC(=S)NC1=O")
12.9
>>> readout_value("CS(=O)(=O)NC(=O)CBr")
-29.4
>>> readout_value("CNC(=O)O/N=C(\\CN=[N+]=[N-])C(C)(C)C")
-19.6
>>> readout_value("NC(=O)C1(Br)CCCCC1")
8.45
>>> readout_value("Oc1c(Cl)cccc1Cl")
-55.1
>>> readout_value("Cc1cc(N)ccc1N")
-6
>>> readout_value("CC1(C)C(=O)N(O)C(C)(C)N1N=O")
15.4
>>> readout_value("CC(=O)Oc1cccc(C#N)c1")
6.65
>>> readout_value("ClCCN(CCCl)CC(Cl)COc1cccc2ccccc12 (configuration not stated)")
25.2
>>> readout_value("CCC(Cl)COP(=O)(OCC(Cl)CC)C(CC)OP(=S)(OCC(Cl)CC)OCC(Cl)CC (configuration not stated)")
57.5
>>> readout_value("Cc1ccc(S(=O)(=O)N/N=C(\\CCN2CCCC2)CC(c2ccccc2)c2c(O)c3ccccc3oc2=O)cc1 (configuration not stated)")
9.95
>>> readout_value("NC(=O)NC(O)C(Cl)(Cl)Cl (configuration not stated)")
-32.6
>>> readout_value("CCCCC1(CCC)C(=O)NC(=O)NC1=O")
1
>>> readout_value("CNC(=O)O/N=C(\\SC)C(=O)N(C)C")
-3.1
>>> readout_value("CN(C)C(=S)Oc1ccc(Cl)cc1S(=O)(=O)F")
-6.7
>>> readout_value("CO[C@@]12[C@@H]3N[C@@H]3CN1C1=C(C(=O)C(NCCC#N)=C(C)C1=O)[C@@H]2COC(N)=O")
-5.3
>>> readout_value("CCOC(=O)/C(=C\\c1ccc(N(C)C)cc1)[Se]c1ccccc1")
18.6
>>> readout_value("CCOC(=O)CC(=O)CCl.[Cu+2]")
-15.9

----------
- Experiment Notes: NCI Yeast Anticancer Drug Screen. Data for the bub3 strain (AID 167)
- Conditions Used: S. cerevisiae bub3 mutant strain, at 50.0 µM
This is part of a sample that, as a whole, favours compounds with a hit. Of some 79,000 tested, about 15% had one in any assay. The source made the active and inactive calls. Rule as the data show it: active = growth inhibition above about 70%; inactive = the rest.
Possible outcomes: Yes (active), No (inactive)

>>> cat("COC1OOC(OC)c2ccccc2-c2ccccc21 (configuration not stated)")
"No"
>>> cat("O=S(=O)(C(Cl)Cl)C(Cl)(Cl)S(=O)(=O)C(Cl)Cl")
"No"
>>> cat("N.N.N.N.N.N.O=N[O-].[Br-].[Co+3].[Co+3].[OH3+].[OH3+]")
"No"
>>> cat("O=c1cc(CCl)occ1O")
"No"
>>> cat("N#CCN(CC#N)[N+](=O)[O-]")
"No"
>>> cat("CCC1(CCBr)C(=O)NC(=O)NC1=O")
"No"
>>> cat("CCNC1=C(N2CC2)C(=O)C(NCC)=C(N2CC2)C1=O")
"No"
>>> cat("c1cc2[se][se]c3c4cccc5[se][se]c(c(c1)c23)c54")
"No"
>>> cat("S=C(N/N=C\\c1cccc(I)c1)NC1CN2CCC1CC2 (configuration not stated)")
"No"
>>> cat("CC1=C(C)C(=O)OC(C(C)(O)C2(O)CCC3(O)C4CC(Cl)C5(O)C(O)C=CC(=O)C5(C)C4CCC32C)C1 (configuration not stated)")
"No"
>>> cat("CC(=O)[CH-]C(C)=O.F[P-](F)(F)(F)(F)F.[Co+3].[NH-]CC[NH-].[NH-]CC[NH-]")
"No"
>>> cat("[CH3][Sn]([CH3])([Br])[CH2]CCCBr")
"Yes"
>>> cat("CC(NC(=O)c1c(O)[nH]c(=S)[nH]c1=O)c1ccc([N+](=O)[O-])cc1 (configuration not stated)")
"No"
>>> cat("CN=NNc1nc[nH]c1C(N)=O")
"No"
>>> cat("C[N+](C)(C)CC1CCC/C1=N/O (configuration not stated)")
"No"
>>> cat("Cn1nnnc1NC#N")
"No"
>>> cat("CCCCn1c(C)c(C(=O)OCC)c2cc(OCc3ccc(C(=O)Nn4c(C)ccc4C)cc3)c(Br)cc21")
"No"
>>> cat("NC(N)=N/N=C1\\C(=O)N(c2cccc([N+](=O)[O-])c2)C(=O)C1C(=O)Nc1cccc([N+](=O)[O-])c1 (configuration not stated)")
"No"
>>> cat("CN(C)C(=O)Sc1c(Cl)cc(Cl)cc1S(=O)(=O)F")
"No"
>>> cat("O=C(NN=C1CCN(Cc2ccccc2)CC1)C(O)(c1ccccc1)c1ccccc1")
"No"
>>> cat("C[N+]1(C)CCCC1c1cccnc1 (configuration not stated)")
"No"
>>> cat("COCCOC(=O)NCP(Cl)(CNC(=O)OCCOC)(CNC(=O)OCCOC)CNC(=O)OCCOC")
"No"
>>> cat("COc1cc2c(c(OC)c1OC)CC1c3c(cc4c(c3-2)OCO4)CCN1C (configuration not stated)")
"No"
>>> cat("O=S(=O)(F)c1cccc(Cl)c1C[P+](c1ccccc1)(c1ccccc1)c1ccccc1")
"No"
>>> cat("FC(F)(F)C(OP(OC(C(F)(F)F)C(F)(F)F)OC(C(F)(F)F)C(F)(F)F)C(F)(F)F")
"No"
>>> cat("CCC[As](=O)(O)Cc1ccccc1C")
"No"
>>> cat("O=c1[nH]c2ccc([As](O)O)cc2[nH]1")
"No"
>>> cat("CCOP(=S)(Oc1ccccc1[N+](=O)[O-])c1ccccc1 (configuration not stated)")
"No"
>>> cat("CC(=N/O)/C(C)=N\\O")
"No"
>>> cat("N/C(=N/N=C/c1ccc(O)cc1)N[N+](=O)[O-]")
"No"
>>> cat("O=C1C(NCC(O)CO)=C(N2CC2)C(=O)C(NCC(O)CO)=C1N1CC1 (configuration not stated)")
"No"
>>> cat("CCOP(=S)(OCC)Oc1cnn(C)c(=S)c1Cl")
"No"

----------
- Experiment Notes: NCI Yeast Anticancer Drug Screen. Data for the mec2-1 strain (AID 157)
- Conditions Used: S. cerevisiae mec2-1 strain, at 50.0 µM, hits give high values
Compounds without any hit were thinned out: in the full panel of roughly 79,000, 15% have a hit.
Parameter: growth inhibition (%)

>>> readout_value("Oc1cccc(Cl)c1")
-30.1
>>> readout_value("COc1ccc(C)cc1C(=O)C[n+]1ccc2ccccc2c1")
-0.8
>>> readout_value("Cn1cc([N+](=O)[O-])c([N+](=O)[O-])c1")
2.5
>>> readout_value("N#CCc1ccc(CC#N)cc1")
-10.6
>>> readout_value("CC(=O)O[C@H]1CC[C@]2(C)C3=C([C@@H](OO)C[C@H]2C1(C)C)[C@]1(C)CC[C@H]([C@H](C)CCCC(C)C)[C@@]1(C)CC3")
4.4
>>> readout_value("CC(C)c1ccc(CCN)cc1")
3.5
>>> readout_value("O=C(O)CCCO")
-20.3
>>> readout_value("CCOC12CC3C4=CCOC5CC(=O)N6c7ccccc7C1(CCN2C4)C6C53 (configuration not stated)")
-39.2
>>> readout_value("N=C(N)n1cc(/C=N/N=C(N)N)cn1")
-4.35
>>> readout_value("Clc1cccc(Cl)c1CBr")
-19.1
>>> readout_value("OCCSCSCCO")
-8.8
>>> readout_value("O=C1Cc2ccccc2C(=O)N1CCN1CCOCC1")
-14.2
>>> readout_value("CC(NC(=O)c1c(O)[nH]c(=S)[nH]c1=O)c1ccc([N+](=O)[O-])cc1 (configuration not stated)")
13.8
>>> readout_value("O=NN1CCCNCC1")
-14.9
>>> readout_value("CNC(=O)Oc1ccc(Br)cc1Br")
-0.95
>>> readout_value("C=CC(=O)OC(C)C")
11.2
>>> readout_value("CC(C)(C)C1=C(Br)C(Br)(C(C)(C)C)OP1(=O)c1ccccc1 (configuration not stated)")
8.55
